Please go through the items and note down their z-score.
assay-procedure: splicing luciferase reporter signal modulators, primary screen, spliceosome inhibition project, cell-based, HEK293, splice +/- reporter (AID 1101);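 further: HEK293 cells carrying a splicing-competent luciferase reporter gene; test concentration not given here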
condition-description: luminescence, 24 h, higher = more signal, called active from +8 up or from −8 down
Just the number, please, no unit after it.

Look at this compound and give its reported z-score. COCCOC(=O)N1C(=O)[C@@]2(c3cc(C#CC4(O)CCCCCC4)ccc31)[C@H](c1ccc(O)cc1)N1[C@H](c3ccccc3)[C@H](c3ccccc3)OC(=O)[C@H]1[C@@H]2C(N)=O
-0.652

Input COc1ccc([Si](C)(C)[C@@H]2[C@@H](CC(=O)N3CCC[C@H]3CO)O[C@]3(C(=O)N(Cc4ccc(N5CCC5=O)cc4)c4ccccc43)[C@H]2C)cc1
-0.473

Input O=C1O[C@@H](c2ccccc2)[C@@H](c2ccccc2)N2[C@@H](c3ccc(OCCO)cc3)[C@]3(C(=O)Nc4ccc(C#CC5(O)CCCCCC5)cc43)[C@@H](C(=O)NC[C@H](O)c3ccccc3)[C@H]12
-0.828

Input CC(C)(C)OC(=O)CC[C@]1(C(=O)NCc2ccccc2)COC(c2ccc(OCCCO)cc2)=N1
-0.264

Input CC(C)(C)OC(=O)CC[C@]1(C(=O)NCc2ccccc2)N=C(c2ccc(OCCCO)cc2)O[C@H]1c1ccccc1N=[N+]=[N-]
-2.19

Input COCCCNC(=O)[C@@]1(Cc2ccccc2CN=[N+]=[N-])COC(c2ccc(OCCCO)cc2)=N1
-0.807

Input C=C(COC)C(=O)CC[C@H](OC(=O)c1ccccc1-c1ccccc1C(=O)O)c1ccccc1OCCO
-0.51

Input CC(C)C[C@@H]1NC(=O)[C@H]2C[C@@H](C(=O)NCCCC[N+](C)(C)C)[C@@H](c3cccc(OCCO)c3)N2C1=O
-1.02

Input CC(C)CNC(=O)[C@@H]1c2ccccc2C(=O)N(Cc2ccc(OC(F)(F)F)cc2)[C@H]1c1ccc(CO)cc1
-0.787

Input O=C1c2ccccc2[C@](Cc2ccccc2I)(C(=O)O)[C@H](c2ccc(CO)cc2)N1Cc1ccccc1Cl
0.0252

Input C=CCN1C(=O)[C@@]2(O[C@@H](CCn3cc(CCO)nn3)[C@H]([Si](C)(C)c3ccc(OC)cc3)[C@H]2C)c2cc(NC(=O)c3ccc(OC)cc3)ccc21
-0.654

Input [N-]=[N+]=NCc1ccccc1C[C@@]1(C(=O)NCc2ccccc2)N=C(c2ccc(OCCCO)cc2)O[C@@H]1c1ccccc1
-1.4

Input COC(=O)[C@@]1(CCC(=O)OC(C)(C)C)COC(c2ccc(OCCCO)cc2)=N1
-0.493

Input C=C[C@H](OC)[C@@H](OC(=O)Nc1ccc(OC)cc1)c1ccc(OC)c(O)c1
-1.48

The reported measurements were obtained from PubChem BioAssay.
